Value source: paper PMC3218832

Parameter: binding signal. Scope: all listed entries.
# test-target: RELARELA (p65 homodimer) (Homo sapiens, UniProt Q04206 1-307)
# Sequence (Q04206 1-307): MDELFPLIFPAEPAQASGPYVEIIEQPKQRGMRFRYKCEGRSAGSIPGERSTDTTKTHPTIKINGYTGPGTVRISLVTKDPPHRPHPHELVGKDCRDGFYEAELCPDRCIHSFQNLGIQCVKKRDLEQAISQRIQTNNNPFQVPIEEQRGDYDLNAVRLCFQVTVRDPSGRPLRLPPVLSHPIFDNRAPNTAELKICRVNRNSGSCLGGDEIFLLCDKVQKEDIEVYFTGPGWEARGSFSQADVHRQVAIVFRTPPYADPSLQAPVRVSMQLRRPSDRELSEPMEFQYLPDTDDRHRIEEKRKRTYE
# assay-remarks: protein binding microarray; high values mean tight binding
# condition-parameters: dsDNA, one strand shown
parameter: binding signal

CGAGTCCCCCT : -0.0442 z-score
AGAGGAATCCC : 0.476 z-score
AAATATCTCCC : 0.144 z-score
AGGGGGGCCCT : -0.0645 z-score
CGAGAAATCCC : 1.4 z-score
CAGAGATTCCT : 0.143 z-score
CAGGACTTCCT : -0.0226 z-score
AGGTTCATCCC : -0.622 z-score
GGAGGGATCCT : -0.405 z-score
GGGTGTGTCCC : 0.547 z-score
CGAATCGCCCT : -0.52 z-score
CAGATACTCCC : -0.1 z-score
GAAGGGCTCCC : -1.08 z-score
AAAATCGCCCT : -0.445 z-score
GAAGAGCCCCT : -0.596 z-score
GGGTGGCCCCC : -0.733 z-score
AAGATCGTCCC : 0.328 z-score
GGGAAGACCCT : 0.871 z-score
AGAAGCTCCCT : -0.425 z-score
CAGTTTGCCCC : 1.6 z-score
AAGGGCCCCCT : -0.998 z-score
AGGTACGCCCC : -0.0324 z-score
GGGGAGGTCCT : 0.546 z-score
AAGATTCTCCT : -0.184 z-score
CGATTAGTCCT : -0.163 z-score
AAGTTGATCCC : -0.64 z-score
AGAGATTTCCT : 0.344 z-score
GAGGTTGCCCT : -0.221 z-score
GGAATCGTCCC : 0.862 z-score
AGGTGCACCCC : -0.368 z-score
CGAAGCTTCCC : 0.142 z-score
CGAGTCTTCCC : 0.331 z-score
AGGATAATCCC : 1.11 z-score
AGAGAGATCCC : -0.281 z-score
CAAGACGCCCT : -0.812 z-score
GAGTAGTCCCT : 0.344 z-score
AAGGGTGCCCT : -1.07 z-score
GAATACATCCT : -0.313 z-score
GAAAGTGCCCC : 0.518 z-score
AAAATAGTCCT : -0.023 z-score
AAAGAATTCCC : 2.27 z-score
AGATATTCCCC : 1.8 z-score

---

Here, each record is paired with measured binding signal data.
# test-target: RELARELA (p65 homodimer) (Homo sapiens, UniProt Q04206 1-307)
# assay-remarks: protein binding microarray; high values mean tight binding
# condition-parameters: dsDNA, one strand shown
parameter: binding signal (z-score)

CAAGAGATCCT : -0.295
AGGTAGCTCCT : -0.716
AGATATCTCCT : -0.509
GAGTGACTCCC : -0.623
CAAGTCACCCC : -0.939
GAATATATCCC : 0.0475
AGGTTACCCCT : -0.124
GAAAGTTCCCT : 0.999
GGGGTCGCCCC : 0.508
CGGGACCCCCT : -0.322
AAATGTGCCCC : 0.655
CAGAAAGTCCT : 1.03
GGGTAAGTCCT : 1.28
CGGAGCGCCCT : -0.577
GAGATGATCCT : -0.876
GAAGATACCCT : -0.565
AGAGAGGTCCT : 0.413
GGGGGAACCCC : 2.66
GGGTTTGCCCT : 1.25
CGAAGCGCCCC : -0.596
